In what follows, each item is paired with its IC50 for HIV reverse transcriptase (Human immunodeficiency virus type 1 group M subtype B).
Dear colleague, please return just the value in nM, with no unit written.

Below: 4 compounds and their reported IC50.
compound=CCCCCn1c(=O)nc(-c2ccc3c(c2)nc(C)n3C)c2oc3ccc(-c4cnn(C)c4)cc3c21 observed_measurement=5
compound=CN1CCN(c2ccc(-c3nc(=O)n(CCN4CCCC4)c4c3oc3ccc(Cl)cc34)cn2)CC1 observed_measurement=22
compound=CCNCC(=O)Nc1ccc(-c2nc(=O)n(CCOC)c3c2oc2ccccc23)cc1 observed_measurement=73
compound=CN(C)Cc1ccc(-c2ccc3oc4c(-c5ccccc5)nc(=O)n(-c5ccccc5)c4c3c2)cc1 observed_measurement=86

Measured IC50, CN(C)Cc1ccc(-c2ccc3oc4c(-c5ccccc5)nc(=O)n(CC(=O)NC5CC5)c4c3c2)cc1 : 1000

Measured IC50, COCCCn1c(=O)nc(-c2ccc(N3CCN(C)CC3)nc2)c2oc3ncc(-c4cncs4)cc3c21 : 4.1

Measured IC50, COCCn1c(=O)nc(-c2ccc(N3CCN(C(C)C)CC3)nc2)c2oc3ccccc3c21 : 107

* * *

// reported pIC50 per item
Target: UniProtKB P04585
Scale note: pIC50 = -log10(concentration in M).

compound="CC(=O)N(C)C1CCN(CCn2c(=O)nc(-c3ccccc3)c3oc4ccc(Br)cc4c32)C1 (stereo not shown) [Compound 2038]" observed_measurement=6.60
compound="CCCCCn1c(=O)nc(-c2ccc(N3CCN(C)CC3)nc2)c2oc3ncc(C#N)cc3c21 [Compound 5024]" observed_measurement=8.22
compound="COCCn1c(=O)nc(-c2ccc(NC(=O)CN3CCOCC3)cc2)c2oc3ccccc3c21 [Compound 1005]" observed_measurement=6.67
compound="COCCCn1c(=O)nc(-c2ccc(N3CCN(C(C)C)CC3)nc2)c2oc3cnccc3c21 [Compound 5019]" observed_measurement=7.60
compound="CCNCC(=O)Nc1ccc(-c2nc(=O)n(CCOC)c3c2oc2ccc(-c4ccc5c(c4)N(C)CCC5)cc23)cc1 [Compound 2039]" observed_measurement=7.62

Now for the compound whose pIC50 we want.
Measured on UniProtKB P04585, COCCn1c(=O)nc(-c2ccc(N3CCN(C)CC3)nc2)c2oc3ccc(Cl)cc3c21 [Compound 2260] has a documented pIC50 of 7.12

* * *

// reported IC50 per item
Molecular target: HIV reverse transcriptase (Human immunodeficiency virus type 1 group M subtype B, UniProt P04585)
Dear colleague, please return just the value in nM, with no unit written.

Below: 2 compounds and their reported IC50.
compound=COCCn1c(=O)nc(-c2ccc(N(C)CCN(C)C)nc2)c2oc3ccccc3c21 observed_measurement=310
compound=CCNCC(=O)Nc1ccc(-c2nc(=O)n(CCOC)c3c2oc2ccc(-c4cccc5c4CCN(C)C5)cc23)cc1 observed_measurement=1150

Measured IC50, CCNCc1nc2cc(-c3nc(=O)n(CCCOC)c4c3oc3ccc(Cl)cc34)ccc2n1C : 8

Measured IC50, O=C(O)Cn1c2ccc(Cl)cc2c2c1c(-c1ccccc1)nc(=O)n2CCN1CCCC1 : 280

Measured IC50, COCCCN1CCN(c2ccc(-c3nc(=O)n(CCCOC)c4c3oc3ncccc34)cn2)CC1 : 60

* * *

Molecular target: HIV reverse transcriptase (Human immunodeficiency virus type 1 group M subtype B, UniProt P04585)
Categories are assigned from the measured IC50 using these intervals: lower segment = under 40 nM, middle segment = from 40 nM up to 600 nM, upper segment = 600 nM and over

**Query** Class? Entry: CC(C)N1CCN(c2ccc(-c3nc(=O)n(CC(=O)N4CC[C@H](F)C4)c4c3oc3ccc(Cl)cc34)cn2)CC1
**Result** lower segment

* * *

Target: HIV reverse transcriptase (Human immunodeficiency virus type 1 group M subtype B)
// reported log10 of IC50 per item
Note: values are log10 of IC50 expressed in nM.

Below: 5 molecules and their reported log10 of IC50.
molecule="COCCn1c(=O)nc(-c2ccc(NC(=O)NCCN3CCCC3)cc2)c2oc3ccccc3c21 [Compound 1016]" observed_measurement=2.03
molecule="COCCCn1c(=O)nc(-c2ccc(N3CCC(NCC(F)F)CC3)nc2)c2oc3ncc(-c4cnn(C)c4)cc3c21 [Compound 5004]" observed_measurement=1.15
molecule="CCNCC(=O)Nc1ccc(-c2nc(=O)n(C)c3c2oc2ccccc23)cc1 [Compound 1051]" observed_measurement=2.72
molecule="COCCn1c(=O)nc(-c2ccc(OCCN(C)C)cc2)c2oc3ccccc3c21 [Compound 1036]" observed_measurement=2.80
molecule="O=c1nc(-c2ccccc2)c2oc3ccc(Cl)cc3c2n1CCN1CCCC1 [Compound 2001]" observed_measurement=2.77

Measured on HIV reverse transcriptase (Human immunodeficiency virus type 1 group M subtype B), CCNCC(=O)Nc1ccc(-c2nc(=O)n(CCOC)c3c2oc2ccc(-c4cncs4)cc23)cc1 [Compound 2021] has a documented log10 of IC50 of 1.30

Measured on HIV reverse transcriptase (Human immunodeficiency virus type 1 group M subtype B), CN1CCN(c2ccc(-c3nc(=O)n(C)c4c3oc3ccc(Br)cc34)cn2)CC1 [Compound 2257] has a documented log10 of IC50 of 1.49

Measured on HIV reverse transcriptase (Human immunodeficiency virus type 1 group M subtype B), CNC1CCN(c2ccc(-c3nc(=O)n(CCOC)c4c3oc3ccc(Cl)cc34)cn2)C1 (centres unmarked) [Compound 2254] has a documented log10 of IC50 of 1.60

Measured on HIV reverse transcriptase (Human immunodeficiency virus type 1 group M subtype B), CN1CCN(CC(=O)Nc2ccc(-c3nc(=O)n(C)c4c3oc3ccccc34)cc2)CC1 [Compound 1002] has a documented log10 of IC50 of 4.04

Measured on HIV reverse transcriptase (Human immunodeficiency virus type 1 group M subtype B), COCCn1c(=O)nc(-c2ccc(NC(=O)CN(C)C)cc2)c2oc3ccccc3c21 [Compound 1004] has a documented log10 of IC50 of 3.06

* * *

In what follows, each item is paired with its IC50 for HIV reverse transcriptase (Human immunodeficiency virus type 1 group M subtype B).

molecule="COCCn1c(=O)nc(-c2ccc(NC(=O)CN3CCCC3)c(OC)c2)c2oc3ccccc3c21 [Compound 1056]" subject_of_test="HIV reverse transcriptase (Human immunodeficiency virus type 1 group M subtype B)" observed_measurement="2500 nM"

Measured on HIV reverse transcriptase (Human immunodeficiency virus type 1 group M subtype B), COCCCN1c2c(oc3ccc(-c4ccc(CN(C)C)cc4)cc23)C(c2ccccc2)=NS1(=O)=O [Compound 3004] has a documented IC50 of > 205 nM

Measured on HIV reverse transcriptase (Human immunodeficiency virus type 1 group M subtype B), CN1CCc2cc(-c3ccc4oc5c(-c6ccc(F)cc6)nc(=O)n(CCN6CCCC6C(N)=O)c5c4c3)ccc2C1 (stereo not shown) [Compound 2025] has a documented IC50 of 35 nM

Measured on HIV reverse transcriptase (Human immunodeficiency virus type 1 group M subtype B), O=c1nc(-c2ccccc2)c2oc3ccccc3c2n1CCN1CCCC1 [Compound 1001] has a documented IC50 of 2350 nM

Measured on HIV reverse transcriptase (Human immunodeficiency virus type 1 group M subtype B), O=c1nc(-c2ccccc2)c2oc3ccc(Cl)cc3c2n1CCN1CCC(F)(F)C1 [Compound 2009] has a documented IC50 of 323 nM

Measured on HIV reverse transcriptase (Human immunodeficiency virus type 1 group M subtype B), COCCn1c(=O)nc(-c2ccc(NS(C)(=O)=O)cc2)c2oc3ccc(-c4ccc(CN(C)C)cc4)cc3c21 [Compound 2194] has a documented IC50 of 395 nM

Measured on HIV reverse transcriptase (Human immunodeficiency virus type 1 group M subtype B), COCCn1c(=O)nc(-c2ccc(N)cc2)c2oc3ccc(Br)cc3c21 [Compound 2133] has a documented IC50 of 760 nM
